- Test system: NCI-H23 lung
- assay.info: NCI tumour cell line growth inhibition, 48 h

compound | TGI
CCOC(=O)c1c(C)noc1/N=N/N(CCO)CCO | > 100 µM
C=CC1(c2ccccc2Cl)N/C(=C/OCC)CO1 (stereo not drawn) | > 100 µM
CCOC(=O)CCSS(=O)(=O)C(F)(F)F | > 100 µM
Cc1ccc(C(=O)OC(C)C)cc1N=NN(C)C | > 100 µM
COCOc1cc(OC)c(Br)cc1C/C(=N/O)C(=O)OC | > 100 µM
CC(O)CCNC(=O)Nc1c(C(F)(F)F)cc(-c2ccccc2)[nH]c1=O (stereo not drawn) | > 100 µM
CC(NC1=NCCO1)c1cccs1 (stereo not drawn) | > 100 µM
CN(C)CCN1C(=O)c2cccc3c(N)ccc(c23)C1=O | > 25 µM
CCCCNC(=O)OCC(COc1ccccc1OC)OC(=O)NCCCC (stereo not drawn) | > 100 µM
COc1nc2c(cc1S(=O)(=O)c1ccccc1)CCc1c-2cnn1Cc1ccccc1 | > 100 µM
C[N+]1(C)CCOC(O)(c2ccccc2)C1 (stereo not drawn) | > 100 µM
O=c1oc2ccccc2cc1-c1csc(Nc2cc(Cl)cc(Cl)c2)n1 | > 56.7 µM
CCOC(=O)C1(Br)C(c2ccccc2)NC(=O)N(C2OC(COC(=O)c3ccccc3)C(OC(=O)c3ccccc3)C2OC(=O)c2ccccc2)C1(C)Br (stereo not drawn) | > 100 µM
